Experimental Target: T1, full-length human GIPR (GenBank NM_000164) with an N-terminal FLAG tag on HEK-293T cells (human), P48546
T1 chain: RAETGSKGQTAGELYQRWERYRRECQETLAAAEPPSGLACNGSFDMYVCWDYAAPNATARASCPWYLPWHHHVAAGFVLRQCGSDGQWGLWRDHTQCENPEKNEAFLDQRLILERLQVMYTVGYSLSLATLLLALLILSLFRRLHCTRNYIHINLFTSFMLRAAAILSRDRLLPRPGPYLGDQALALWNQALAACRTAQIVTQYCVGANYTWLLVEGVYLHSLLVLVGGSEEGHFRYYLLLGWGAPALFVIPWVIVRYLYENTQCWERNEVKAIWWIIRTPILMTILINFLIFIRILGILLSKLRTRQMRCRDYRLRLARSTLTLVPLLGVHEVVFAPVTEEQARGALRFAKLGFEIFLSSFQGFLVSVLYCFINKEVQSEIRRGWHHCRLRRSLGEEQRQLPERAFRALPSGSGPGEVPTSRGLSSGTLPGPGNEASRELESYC
Procedure Details: cell-based or functional assay
Numbered stars: 1 amine (or outer) side, 2 acyl side, 3 side chain; on linkers, the order of the positions; unused ones are H or OH. Square brackets hold non-standard residues; d marks the D form. Primed or numbered codes have the meaning given here. Side chains are listed from the residue outwards. Ends that are not written are not given here. * marks the point of attachment. C20 diacid = O=C(O)CCCCCCCCCCCCCCCCCCC(=O)*; C18 diacid = O=C(O)CCCCCCCCCCCCCCCCC(=O)*; C16 diacid = O=C(O)CCCCCCCCCCCCCCC(=O)*; γGlu = O=C(O)[C@H](CCC(=O)[*:2])N[*:1]; Iva = CC[C@](C)(N)C(=O)O; PEG3′ = not defined here; Aib = CC(C)(N)C(=O)O
Metric Name: GIP EC50(pM)
I only need the number, in pM, no unit after it.

Q) For the binder Y[Aib]EGTFISDYSIALDR[Aib]HQ[Aib]NFVNW[Iva]LAQRK([PEG3′-γGlu-C16 diacid])SSGAPPPS (ends and bridges not checked) [Compound No. 509] , what GIP EC50(pM) is on record?
A) 0.54

Q) What about this binder? Y[Aib]EGTFISDYSIALDR[Aib]HQ[Aib]NFVNW[Iva]LAQRPSSGK([Gly-Gly-Gly-Gly-Gly-γGlu-C20 diacid])PPPS (ends and bridges not checked) [Compound No. 452]
A) 2.17

Q) Param item: Y[Aib]EGTFISDYSIALDR[Aib]HQ[Aib]NFVNW[Iva]LAQRPSSGAK([Gly-Gly-Gly-Gly-Gly-γGlu-C16 diacid])PPS (ends and bridges not checked) [Compound No. 453]
A) 0.6

Q) Continue with Y[Aib]EGTFISDYSIALDR[Aib]HQ[Aib]NFVNW[Iva]LAQRPSSGAK([PEG3′-γGlu-C18 diacid])PPS (ends and bridges not checked) [Compound No. 525]
A) 0.82

Q) Here is the next binder: Y[Aib]EGTFISDYSIALDR[Aib]HQ[Aib]NFVNW[Iva]LAQRPSSGAPK([PEG3′-PEG3′-γGlu-C16 diacid])PS (ends and bridges not checked) [Compound No. 503]
A) 0.49

Q) And then Y[Aib]EGTFISDYSIALDR[Aib]HQ[Aib]NFVNW[Iva]LAQRGGGGSK([PEG3′-PEG3′-γGlu-C18 diacid]) (ends and bridges not checked) [Compound No 942] , what is it?
A) 1.4

Q) Repeat with Y[Aib]EGTFISDYSIALDR[Aib]HQ[Aib]NFVNW[Iva]LAQRPK([γGlu-γGlu-C18 diacid])SGAPPPS (ends and bridges not checked) [Compound No. 548]
A) 0.81

Q) Same read-out for Y[Aib]EGTFISDYSIALDR[Aib]HQ[Aib]NFVNW[Iva]LAQRPSSGAPPPK([PEG3′-PEG3′-γGlu-C16 diacid]) (ends and bridges not checked) [Compound No. 479] ?
A) 0.42

// data source = patent US20220135638A1
